Taken from patent US10723751B2.

Test system: Pseudomonas Aeruginosa
METHOD_SUMMARY: Aerobic Culture and Mic from ear swab
CONDITION_SET: Pseudomonas aeruginosa
MEASUREMENT_TYPE: MIC

Solved cases (5 shown):
COCC1=C(C(=O)O)N2C(=O)[C@@H](NC(=O)/C(=N\OC)c3csc(N)n3)[C@H]2SC1 = ≥ 8 µg/mL
NCC[C@H](O)C(=O)N[C@@H]1C[C@H](N)[C@@H](O[C@H]2O[C@H](CN)[C@@H](O)[C@H](O)[C@H]2O)[C@H](O)[C@H]1O[C@H]1O[C@H](CO)[C@@H](O)[C@H](N)[C@H]1O = ≤ 8 µg/mL
CN1CCN(c2c(F)cc3c(=O)c(C(=O)O)cn4c3c2OCN4C)CC1 = ≤ 1 µg/mL
CO[C@@]1(NC(=O)Cc2cccs2)C(=O)N2C(C(=O)O)=C(COC(N)=O)CS[C@@H]21 = ≥ 32 µg/mL
CCN1CCN(c2cc3c(cc2F)c(=O)c(C(=O)O)cn3C2CC2)CC1 = ≤ 0.5 µg/mL

-- ask What measured MIC goes with `CO/N=C(\C(=O)N[C@@H]1C(=O)N2C(C(=O)O)=C(CSC(=O)c3ccco3)CS[C@H]12)c1csc(N)n1` ?
-- reply ≥ 8 µg/mL
